- Target desc: Microphthalmia-associated transcription factor (Homo sapiens) (UniProt O75030)
- Sequence (O75030 whole entry, looked up): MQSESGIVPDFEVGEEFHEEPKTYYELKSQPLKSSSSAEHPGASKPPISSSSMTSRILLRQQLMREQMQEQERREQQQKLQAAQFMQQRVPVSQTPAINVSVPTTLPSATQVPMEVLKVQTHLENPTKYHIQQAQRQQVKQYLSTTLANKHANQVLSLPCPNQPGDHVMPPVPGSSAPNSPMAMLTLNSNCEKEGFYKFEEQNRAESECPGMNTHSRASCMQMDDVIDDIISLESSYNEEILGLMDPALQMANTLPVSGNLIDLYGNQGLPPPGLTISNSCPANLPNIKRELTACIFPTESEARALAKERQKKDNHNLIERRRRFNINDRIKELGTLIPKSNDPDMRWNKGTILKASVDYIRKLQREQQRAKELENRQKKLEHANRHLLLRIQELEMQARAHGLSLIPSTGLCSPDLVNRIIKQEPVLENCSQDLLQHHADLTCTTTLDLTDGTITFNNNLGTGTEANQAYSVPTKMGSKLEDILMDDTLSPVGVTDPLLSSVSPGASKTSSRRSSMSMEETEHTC
- Assay text: MITF inhibitors, primary screen, biochemical, AlphaScreen, human (AID 1259374)
- Conditions used: AlphaScreen MITF homodimerization, bead proximity signal; at 2.6 µM
The whole screen tested about 650,000 compounds, of which about 5,900 (0.91%) were called active. No stated cut-off is given here; in the data, active means inhibition above about 50%; inactive means the rest. Many of the other results were omitted from the sample, so actives are more common in it than they were.
Lab note: assign the record to one of active, inactive

A selection of reference data follows.
- CN(C)/C=C/C=C/C=C1\CCC\C(=C/C=C/C=C/N(C)C)C1=O: active
- Cc1nc2c(ccc3nc(NC(=O)c4ccc([N+](=O)[O-])o4)sc32)s1: inactive
- Clc1cc(Cl)c(OCCOc2ccccc2)c(/C=N/n2cnnc2)c1: inactive
- O=C(N/N=C\c1ccc(Cl)cc1Cl)c1ccccc1O: inactive
- CN(C)/N=C/C=C1\CCC/C(=C\C=N\N(C)C)C1=O: inactive

INPUT: Name the outcome recorded for Cc1ccc(NC(=O)C2C3NC(=S)N(c4ccc(F)cc4)C2(C)Oc2ccc(Br)cc23)c(C)c1 (stereo not given) in the assay.
OUTPUT: inactive

INPUT: Name the outcome recorded for CC1(C)CC(=O)C2=C(C1)N(c1cccc(Cl)c1Cl)C1=C(C(=O)CC(C)(C)C1)C2c1ccc(F)c(Br)c1 in the assay.
OUTPUT: inactive

INPUT: Name the outcome recorded for CC1CCC2C(=O)N(c3ccc(I)cc3)C(=O)C2C1 (stereo not given) in the assay.
OUTPUT: active

INPUT: Name the outcome recorded for O=C1Nc2c(Cl)cc(Cl)cc2/C1=N\N=C\c1ccc(O)c(O)c1O in the assay.
OUTPUT: active

INPUT: Name the outcome recorded for CN1CCN(Cc2c(O)ccc3c2O/C(=C\c2ccccc2Cl)C3=O)CC1 in the assay.
OUTPUT: inactive
